target: Voltage-gated inwardly rectifying potassium channel KCNH2 (Homo sapiens, UniProt Q12809)
Sequence (Q12809 whole entry): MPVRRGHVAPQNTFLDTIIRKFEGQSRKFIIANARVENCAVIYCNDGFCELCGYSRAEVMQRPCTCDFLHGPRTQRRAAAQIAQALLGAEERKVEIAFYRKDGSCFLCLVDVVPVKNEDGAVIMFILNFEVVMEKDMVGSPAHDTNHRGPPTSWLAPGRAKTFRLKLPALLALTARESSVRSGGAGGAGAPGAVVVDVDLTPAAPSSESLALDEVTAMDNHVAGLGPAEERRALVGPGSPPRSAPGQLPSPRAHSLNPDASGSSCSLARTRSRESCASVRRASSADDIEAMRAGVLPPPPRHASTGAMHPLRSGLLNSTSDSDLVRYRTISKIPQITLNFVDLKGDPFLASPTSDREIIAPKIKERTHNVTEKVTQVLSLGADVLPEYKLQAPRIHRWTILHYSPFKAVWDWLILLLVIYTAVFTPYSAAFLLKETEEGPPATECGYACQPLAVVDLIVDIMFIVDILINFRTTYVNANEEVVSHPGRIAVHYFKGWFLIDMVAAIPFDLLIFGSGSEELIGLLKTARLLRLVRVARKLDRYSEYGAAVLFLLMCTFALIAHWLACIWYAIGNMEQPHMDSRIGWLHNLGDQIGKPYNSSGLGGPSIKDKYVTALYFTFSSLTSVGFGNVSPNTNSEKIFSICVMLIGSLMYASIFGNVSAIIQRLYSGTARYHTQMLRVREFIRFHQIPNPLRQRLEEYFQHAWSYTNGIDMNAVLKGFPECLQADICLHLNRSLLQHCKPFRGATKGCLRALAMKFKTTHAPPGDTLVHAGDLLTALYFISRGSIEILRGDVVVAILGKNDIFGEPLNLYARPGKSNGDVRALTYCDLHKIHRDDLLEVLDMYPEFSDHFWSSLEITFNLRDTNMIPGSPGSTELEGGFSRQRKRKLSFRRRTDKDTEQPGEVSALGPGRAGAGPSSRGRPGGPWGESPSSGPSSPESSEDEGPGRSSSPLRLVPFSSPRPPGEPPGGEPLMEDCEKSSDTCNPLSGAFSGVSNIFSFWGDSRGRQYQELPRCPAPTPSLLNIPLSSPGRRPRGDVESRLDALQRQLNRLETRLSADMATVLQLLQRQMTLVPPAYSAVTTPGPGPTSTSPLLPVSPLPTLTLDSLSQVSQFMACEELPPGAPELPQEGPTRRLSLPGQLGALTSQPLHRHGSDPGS
pIC50: −log10 of the molar value.
Property name: pIC50

Determine from records and report pIC50 for COc1ccc2nccc(CC[C@H]3OC[C@H](NC(=O)c4ccc5c(c4)OCCO5)CO3)c2c1
< 4.00

* * *

molecular target: Topoisomerase IV (Staphylococcus aureus, UniProt P0C1S7+P0C1U9); experiment: Inhibition of Staphylococcus aureus topoisomerase-4 assessed as reduction in decatenation of kinetoplast DNA agarose gel electrophoresis method; type: protein-complex assay
Property name: log10 IC50 (log10 of the value in nM)
Units before log transform: nM; reported quantity: IC50; transform: log10.

Record excerpt, results attached:
[
  {
    "Smiles input": "COc1ccc2nccc(CC[C@H]3OC[C@H](NC(=O)c4ccc5c(c4)NC(=O)CO5)CO3)c2c1",
    "log10 IC50": 2.95
  },
  {
    "Smiles input": "COc1ccc2nccc(CC[C@H]3OC[C@H](NC(=O)c4ccc5c(n4)NC(=O)CO5)CO3)c2c1",
    "log10 IC50": 2.28
  },
  {
    "Smiles input": "COc1ccc2nccc(CC[C@H]3OC[C@H](NC(=O)c4ccc5c(c4)NC(=O)CS5)CO3)c2c1",
    "log10 IC50": 2.85
  },
  {
    "Smiles input": "COc1ccc(C(=O)N[C@H]2CO[C@H](CCc3ccnc4ccc(OC)cc34)OC2)cc1",
    "log10 IC50": 5.03
  }
]

Lab note: record log10 IC50 of COc1ccc2nccc(CC[C@H]3OC[C@H](NC(=O)c4ccc5c(n4)NC(=O)CS5)CO3)c2c1 tested on Topoisomerase IV (Staphylococcus aureus, UniProt P0C1S7+P0C1U9).
2.48

* * *

target: DNA gyrase (Staphylococcus aureus) (UniProt P0A0K8+P20831); experiment: Inhibition of Staphylococcus aureus DNA gyrase assessed as double-strand break at 20 uM using relaxed pBR322 as substrate by ethidium bromide-based gel electrophoresis; format: protein-complex assay
Activity calls are given as the source filed them. The calls are words filed in the database; no cut-off is given here.
Property name: inhibition

[
  {
    "Smiles input": "COc1ccc2nccc(CC[C@H]3OC[C@H](NC(=O)c4ccc(Cl)c(Cl)c4)CO3)c2c1",
    "Result": "inactive"
  },
  {
    "Smiles input": "COc1ccc2nccc(CC[C@H]3OC[C@H](NC(=O)c4ccc(C)cc4)CO3)c2c1",
    "Result": "inactive"
  },
  {
    "Smiles input": "COc1ccc2nccc(CC[C@H]3OC[C@H](NC(=O)c4ccc(C(F)(F)F)cc4)CO3)c2c1",
    "Result": "inactive"
  },
  {
    "Smiles input": "COc1ccc2nccc(CC[C@H]3OC[C@H](NC(=O)c4ccc(Cl)cc4)CO3)c2c1",
    "Result": "inactive"
  }
]

Determine from records and report inhibition for COc1ccc2nccc(CC[C@H]3OC[C@H](NC(=O)c4ccc5c(c4)OCCO5)CO3)c2c1
inactive

Determine from records and report inhibition for COc1ccc2nccc(CC[C@H]3OC[C@H](NC(=O)c4cccc(Cl)c4)CO3)c2c1
inactive

Determine from records and report inhibition for COc1ccc2nccc(CC[C@H]3OC[C@H](NC(=O)c4ccc(C(C)(C)C)cc4)CO3)c2c1
inactive

Determine from records and report inhibition for COc1ccc2nccc(CC[C@H]3OC[C@H](NC(=O)c4ccc(OC(F)(F)F)cc4)CO3)c2c1
inactive

* * *

system: Staphylococcus aureus; assay: Antibacterial activity against Staphylococcus aureus ATCC 29213 by CLSI based agar dilution method; type: functional
Property name: MIC (µg/mL)
Write the answer as a number in µg/mL, unit excluded.

Record excerpt, results attached:
[
  {
    "Smiles input": "COc1ccc2nccc(CC[C@H]3OC[C@H](NC(=O)c4ccc(C(F)(F)F)cc4)CO3)c2c1",
    "Measured on": "Staphylococcus aureus",
    "MIC [µg/mL]": 0.25
  },
  {
    "Smiles input": "COc1ccc(C(=O)N[C@H]2CO[C@H](CCc3ccnc4ccc(OC)cc34)OC2)cc1",
    "Measured on": "Staphylococcus aureus",
    "MIC [µg/mL]": 4
  },
  {
    "Smiles input": "COc1ccc2nccc(CC[C@H]3OC[C@H](NC(=O)c4cccnc4)CO3)c2c1",
    "Measured on": "Staphylococcus aureus",
    "MIC [µg/mL]": 256
  }
]

Read the next record carefully.
Determine from records and report MIC for COc1ccc2nccc(CC[C@H]3OC[C@H](NC(=O)c4ccc5c(c4)NC(=O)CS5)CO3)c2c1
0.03

* * *

test system: Staphylococcus aureus; experiment: Antibacterial activity against Staphylococcus aureus ATCC 29213 by CLSI based agar dilution method; assay type: functional
Collected MIC values appear next to each entry.
Write the answer as a number in µg/mL, unit excluded.

Record excerpt, results attached:
[
  {
    "Smiles input": "COc1ccc2nccc(CC[C@H]3OC[C@H](NC(=O)c4ccc5c(n4)NC(=O)CO5)CO3)c2c1",
    "Measured on": "Staphylococcus aureus",
    "Numeric result": 0.125
  },
  {
    "Smiles input": "COc1ccc2nccc(CC[C@H]3OC[C@H](NC(=O)c4ccccc4Cl)CO3)c2c1",
    "Measured on": "Staphylococcus aureus",
    "Numeric result": 256
  },
  {
    "Smiles input": "COc1ccc2nccc(CC[C@H]3OC[C@H](NC(=O)[C@H]4CC[C@H](C)CC4)CO3)c2c1",
    "Measured on": "Staphylococcus aureus",
    "Numeric result": 4
  },
  {
    "Smiles input": "COc1ccc2nccc(CC[C@H]3OC[C@H](NC(=O)c4ccc5c(n4)NC(=O)CS5)CO3)c2c1",
    "Measured on": "Staphylococcus aureus",
    "Numeric result": 0.06
  },
  {
    "Smiles input": "COc1ccc2nccc(CC[C@H]3OC[C@H](NC(=O)c4ccccc4)CO3)c2c1",
    "Measured on": "Staphylococcus aureus",
    "Numeric result": 8
  }
]

Lab note: record MIC of COc1ccc2nccc(CC[C@H]3OC[C@H](NC(=O)c4ccc(OC(F)(F)F)cc4)CO3)c2c1 tested on Staphylococcus aureus.
0.5

Lab note: record MIC of COc1ccc2nccc(CC[C@H]3OC[C@H](NC(=O)c4ccc(Cl)cc4)CO3)c2c1 tested on Staphylococcus aureus.
1

Lab note: record MIC of COc1ccc2nccc(CC[C@H]3OC[C@H](NC(=O)c4ccc(C)cc4)CO3)c2c1 tested on Staphylococcus aureus.
1

Lab note: record MIC of COc1ccc2nccc(CC[C@H]3OC[C@H](NC(=O)c4ccc(Cl)c(Cl)c4)CO3)c2c1 tested on Staphylococcus aureus.
0.125

Lab note: record MIC of COc1ccc2nccc(CC[C@H]3OC[C@H](NC(=O)C4CCCCC4)CO3)c2c1 tested on Staphylococcus aureus.
8

* * *

tested on: K562; assay: Growth inhibition of human K562 cells incubated for 48 hrs by sulforhodamine B assay; format: functional
Property name: INH

Record excerpt, results attached:
[
  {
    "Smiles input": "COc1ccc2nccc(CC[C@H]3OC[C@H](NC(=O)c4ccc5c(c4)NC(=O)CO5)CO3)c2c1",
    "INH": ">200 µM"
  },
  {
    "Smiles input": "COc1ccc2nccc(CC[C@H]3OC[C@H](NC(=O)c4ccc5c(n4)NC(=O)CO5)CO3)c2c1",
    "INH": ">200 µM"
  },
  {
    "Smiles input": "COc1ccc2nccc(CC[C@H]3OC[C@H](NC(=O)c4ccc5c(n4)NC(=O)CS5)CO3)c2c1",
    "INH": ">200 µM"
  },
  {
    "Smiles input": "COc1ccc2nccc(CC[C@H]3OC[C@H](NC(=O)c4cccc(Cl)c4)CO3)c2c1",
    "INH": "<200 µM"
  }
]

Read the next record carefully.
Lab note: record INH of COc1ccc2nccc(CC[C@H]3OC[C@H](NC(=O)c4ccc5c(c4)NC(=O)CS5)CO3)c2c1 tested on K562.
>200 µM

* * *

tested on: Staphylococcus aureus; assay: Antibacterial activity against Staphylococcus aureus ATCC 29213 by CLSI based agar dilution method; format: functional
Property name: MIC

Record excerpt, results attached:
[
  {
    "Molecule": "COc1ccc2nccc(CC[C@H]3OC[C@H](NC(=O)c4ccc(C#N)cc4)CO3)c2c1",
    "MIC": "> 8 µg/mL"
  },
  {
    "Molecule": "COc1ccc2nccc(CC[C@H]3OC[C@H](NC(=O)c4ccccn4)CO3)c2c1",
    "MIC": "> 256 µg/mL"
  },
  {
    "Molecule": "COc1ccc2nccc(CC[C@H]3OC[C@H](NC(=O)C4Cc5ccccc5CO4)CO3)c2c1 (stereo partly drawn)",
    "MIC": "> 64 µg/mL"
  },
  {
    "Molecule": "COc1ccc2nccc(CC[C@H]3OC[C@H](NC(=O)[C@H]4CC[C@H](N)CC4)CO3)c2c1",
    "MIC": "> 64 µg/mL"
  },
  {
    "Molecule": "COc1ccc2nccc(CC[C@H]3OC[C@H](NC(=O)[C@H]4CC[C@@H](O)CC4)CO3)c2c1",
    "MIC": "> 64 µg/mL"
  },
  {
    "Molecule": "COc1ccc2nccc(CC[C@H]3OC[C@H](NC(=O)C4(C)CCCCC4)CO3)c2c1",
    "MIC": "> 64 µg/mL"
  },
  {
    "Molecule": "COc1ccc2nccc(CC[C@H]3OC[C@H](NC(=O)[C@H]4CC[C@H](O)CC4)CO3)c2c1",
    "MIC": "> 64 µg/mL"
  }
]

Read the next record carefully.
Lab note: record MIC of COc1ccc2nccc(CC[C@H]3OC[C@H](NC(=O)c4ccc(F)cc4)CO3)c2c1 tested on Staphylococcus aureus.
> 256 µg/mL
